Quick reference: INHIBITION of the listed items.
- Tested on: Plasmodium berghei
- measurement_protocol: Screen against P. berghei liver stage (PbLuc), transformed with Luciferase, at 10uM
- Type: functional, HepG2
- settings: tested at 10 uM
In all, about 69,000 compounds went through this assay and about 8,600 (12%) showed an effect of 50% or more. The sample as a whole holds a higher share of strong results than the screen did.
Please state the figure in %; there is no need to write the unit.

Form field: reported INHIBITION of O=C(c1ccncc1)N1CCC(c2nc(O)cc(-c3cccnc3)n2)C1 (stereo not given)
48.9

Reported INHIBITION for `Clc1cccc(-n2cnnn2)c1N1CCCC1` : what is it?
11

Reported INHIBITION for `O=C(c1ccc2ncsc2c1)N1CCC(C(=O)O)(n2cccn2)CC1` : what is it?
-0.529

// INHIBITION lookup, key: `Cn1cc(S(=O)(=O)NCc2ccsc2)cn1`
-17.8

Fill in: INHIBITION of `Clc1cccc(-n2cnnn2)c1N1CCOCC1` is ___
1.86

Query (molecule): `Cc1nc(-c2ccccc2)n(CC(=O)NC2CCCC2)n1` ; field requested: INHIBITION
7.27

Recorded INHIBITION for `NC(=O)NC1CCN(Cc2ccccc2OCC(F)(F)F)CC1` , please?
6.7

Entry COc1ccccc1NC(=O)N1CCCC1c1ccco1 (stereo not given) has what INHIBITION?
1.45

====

- System: Plasmodium berghei
- measurement_protocol: Screen against P. berghei liver stage (PbLuc), transformed with Luciferase, at 10uM
- Type: functional, HepG2
- settings: tested at 10 uM
Hit rate of the full screen: of about 69,000 compounds, about 8,600 (12%) showed an effect of 50% or more. What follows is part of a selection rich in strong results, with near analogues and random picks from the rest.
quantity: INHIBITION
Returns: string containing the numeric result and its unit.

INSERT INTO assay_data (compound, reported) VALUES
  ('Cc1nccc(NCc2cc3n(n2)CCCN(C(=O)C2CCC2)C3)n1', '21.1%');

Okay, next one:
Look up INHIBITION: `COc1ccc(CN2CCC3(CC2)CCN(CCN(C)C)C3=O)cc1`
-17.1%

====

Quick reference: INHIBITION of the listed items.
- Tested on: Plasmodium berghei
- measurement_protocol: Screen against P. berghei liver stage (PbLuc), transformed with Luciferase, at 10uM
- Assay type: functional, HepG2
- settings: tested at 10 uM
The campaign covered roughly 69,000 compounds. About 8,600 (12%) showed an effect of 50% or more. The list comes from a sample in which strong results are over-represented; it also holds close analogues and randomly drawn compounds.
Field format: number, assumed %, no unit text.

Consider the reported INHIBITION for these compounds:
INSERT INTO results (compound, target_under_test, unit_spec, reported) VALUES
  ('CCOc1ccc(C(=O)Nc2c(C)nc3ccc(Cl)cn3c2=O)cc1', 'Plasmodium berghei', '%', 51.6),
  ('COCCC(C)NC(=O)N1CCC(n2ccc(C(F)(F)F)n2)CC1 (stereo unspecified)', 'Plasmodium berghei', '%', 15.7),
  ('CCOc1ccc(C(=O)Nc2c(C)nc3ccccn3c2=O)cc1', 'Plasmodium berghei', '%', 56.5),
  ('Cc1cc(C)n(CC2CCCCN2C(=O)c2ccc3c(c2)COC3)n1 (stereo unspecified)', 'Plasmodium berghei', '%', 56.4),
  ('CN1CCN([C@@H]2CCN(CC3CCOC3)[C@H]2Cc2cnn(C)c2)CC1 (stereo partly specified)', 'Plasmodium berghei', '%', -10.5),
  ('CCOc1ccc(C(=O)Nc2c(C)nc3scc(C)n3c2=O)cc1', 'Plasmodium berghei', '%', 5.58),
  ('Cc1nc(Nc2ncccn2)cc(C2CN(C(=O)c3cccnc3)C2)n1', 'Plasmodium berghei', '%', 37.6),
  ('O=S(=O)(c1ccc2c(c1)OCCO2)N1CCc2ccccc2C1', 'Plasmodium berghei', '%', 57.6),
  ('O=c1ccc2c([nH]1)CCN(S(=O)(=O)c1ccc3c(c1)OCCO3)C2', 'Plasmodium berghei', '%', 26),
  ('CCOc1ccc(C(=O)Nc2ccn(CC)n2)cc1', 'Plasmodium berghei', '%', -125);

What value of measured INHIBITION is listed for `Cc1c(C)n(-c2ccccn2)c2nc3c(c(N)c12)CCCCC3` ?
32.2

====

Each entry below lists one item and its recorded INHIBITION value.
- System: Plasmodium berghei
- measurement_protocol: Screen against P. berghei liver stage (PbLuc), transformed with Luciferase, at 10uM
- Format: functional, HepG2
- settings: tested at 10 uM
The whole screen tested about 69,000 compounds, of which about 8,600 (12%) showed an effect of 50% or more. What follows is part of a selection rich in strong results, with near analogues and random picks from the rest.
Just the number please, in %, no unit attached.

INSERT INTO results (compound, quantity, reported) VALUES
  ('COc1cc(CNCC2CNc3ccnn3C2)ccn1 (centres undefined)', 'INHIBITION', 23.7);

Quick one: INHIBITION of `CN1CCN(Cc2nnc(C3CCN(CC4CC4)CC3)n2C)CC1` ?
-17

Entry under review: `O=C(N1CCOCC1)N1CCN(c2ccc(Cl)nn2)C(=O)C1` . Reported INHIBITION?
24.2

Give its INHIBITION value. Item: c1coc(CN2CCC3(CCOCC3COCC3CC3)CC2)c1 (centres undefined)
18.6

Entry `O=C(c1ncccn1)N1C[C@@H]2CN(Cc3cccnc3)CCO[C@@H]2C1` : reported INHIBITION = ?
-1.26

I am curious: what INHIBITION value has been reported for `Cn1c(CN2CCOCC2)nnc1C1CCN(C(=O)C2CCCC2)CC1` ?
50.1

Item under review: c1cc(CNCC2CNc3ccnn3C2)cc(Cn2cccn2)c1 (centres undefined) . Reported INHIBITION?
50.5

Data request, read-out INHIBITION, for Cn1ccnc1CC1CCCN(C(=O)NCCOc2cccnc2)C1 (centres undefined)
44.5

Need INHIBITION of `O=C(c1ccco1)N1C[C@H]2CCCN(Cc3ccc(F)cc3)[C@H]2C1` , thanks.
29.4

====

- Tested on: Plasmodium berghei
- measurement_protocol: Screen against P. berghei liver stage (PbLuc), transformed with Luciferase, at 10uM
- Format: functional, HepG2
- settings: tested at 10 uM
Screen size: about 69,000 compounds; about 8,600 (12%) showed an effect of 50% or more. The sample as a whole holds a higher share of strong results than the screen did.
quantity: INHIBITION (%)
Value expressed in %; do not type the unit.

INSERT INTO assay_data (compound, quantity, unit_spec, reported) VALUES
  ('c1cc(CN2CC[C@H]3O[C@@H](COCC4CCOCC4)CC[C@H]32)ccn1', 'INHIBITION', '%', 52),
  ('COc1ncc(CN2CCOC(C)(C(=O)N3CCOCC3)C2)cn1 (stereo unspecified)', 'INHIBITION', '%', 41.2),
  ('O=S(=O)(NC1CCOC1)c1ccc(C(F)(F)F)nc1 (stereo unspecified)', 'INHIBITION', '%', 34.5),
  ('c1cncc(COCC2CC[C@H]3[C@H](CCN3CC3CCOCC3)O2)c1 (stereo partly specified)', 'INHIBITION', '%', 78.8),
  ('CSC(C)C(=O)NCc1ccnc(N2CCN(C)CC2)c1 (stereo unspecified)', 'INHIBITION', '%', -11.98);

What measured INHIBITION is associated with Cc1ccc(C(CNCc2c[nH]nc2C)N(C)C)cc1 (stereo unspecified) on Plasmodium berghei?
-4.33

====

- System: Plasmodium berghei
- measurement_protocol: Screen against P. berghei liver stage (PbLuc), transformed with Luciferase, at 10uM
- Assay type: functional, HepG2
- settings: tested at 10 uM
The whole screen tested about 69,000 compounds, of which about 8,600 (12%) showed an effect of 50% or more. This excerpt belongs to a sample that is enriched for strong results.
quantity: INHIBITION (%)
Number in %, nothing else.

Sample records with INHIBITION:
INSERT INTO results (molecule, quantity, reported) VALUES
  ('CC(=O)Nc1ccc(SCC(O)COCc2ccco2)cc1 (stereo unspecified)', 'INHIBITION', 26.9),
  ('CCC[C@H]1CN(S(=O)(=O)c2ccccc2)C[C@@H]1N', 'INHIBITION', -2.34),
  ('Cc1ccoc1C(=O)N1CCC(n2cc(CO)nn2)CC1', 'INHIBITION', -37.8),
  ('CCC[C@@H]1CN(S(=O)(=O)c2ccc(C)c(F)c2)C[C@H]1N(C)C', 'INHIBITION', 37.8),
  ('CCC[C@H]1CN(S(=O)(=O)c2ccc(CC)s2)C[C@@H]1N', 'INHIBITION', 52.2);

INHIBITION lookup needed for `CN(C)c1cc(CNC(=O)Nc2ccc(N3CCCC3)nc2)ccn1` , thanks.
69.7

Which INHIBITION is reported for this molecule? `Cc1cc(-c2cc(S(=O)(=O)N3C[C@H](C4CC4)[C@@H](N)C3)c(C)s2)on1`
45.3
